MEASUREMENT TARGET: T1, TNFR1 (Homo sapiens, UniProt P19438)
T1 chain: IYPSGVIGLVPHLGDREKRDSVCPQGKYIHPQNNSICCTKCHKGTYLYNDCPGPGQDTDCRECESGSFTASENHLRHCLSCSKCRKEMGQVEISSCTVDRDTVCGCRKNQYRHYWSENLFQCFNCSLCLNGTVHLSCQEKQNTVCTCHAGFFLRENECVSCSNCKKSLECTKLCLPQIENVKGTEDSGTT
PROTOCOL NOTES: yeast display SC50
MEASURED QUANTITY: apparent Kd (screen) (pM)
Numbers only, in pM.

BINDER	MEASURED QUANTITY	NUMERIC VALUE
L99Q (designed binder) SMEEEVEKAAKEYEKKKKEAIEKHLEKLKAKDKEAAERFLKELEEAAKEYAKDEAKTMSEEEAKRRAKKYKEKVLLSELSEEEQKEIKEAEEKLVRTIQKYVEEAAK	apparent Kd (screen)	11400

List reported apparent Kd (screen) for each of these binders:
1. A47L (designed binder) SMEEEVEKAAKEYEKKKKEAIEKHLEKLKAKDKEAAERFLKELEEALKEYAKDEAKTMSEEEAKRRAKKYKEKVLLSELSEEEQKEIKEAEEKLVRTILKYVEEAAK
2. A90T (designed binder) SMEEEVEKAAKEYEKKKKEAIEKHLEKLKAKDKEAAERFLKELEEAAKEYAKDEAKTMSEEEAKRRAKKYKEKVLLSELSEEEQKEIKETEEKLVRTILKYVEEAAK
3. A51E (designed binder) SMEEEVEKAAKEYEKKKKEAIEKHLEKLKAKDKEAAERFLKELEEAAKEYEKDEAKTMSEEEAKRRAKKYKEKVLLSELSEEEQKEIKEAEEKLVRTILKYVEEAAK
4. L75W (designed binder) SMEEEVEKAAKEYEKKKKEAIEKHLEKLKAKDKEAAERFLKELEEAAKEYAKDEAKTMSEEEAKRRAKKYKEKVWLSELSEEEQKEIKEAEEKLVRTILKYVEEAAK
5. E42M (designed binder) SMEEEVEKAAKEYEKKKKEAIEKHLEKLKAKDKEAAERFLKMLEEAAKEYAKDEAKTMSEEEAKRRAKKYKEKVLLSELSEEEQKEIKEAEEKLVRTILKYVEEAAK
6. L75M (designed binder) SMEEEVEKAAKEYEKKKKEAIEKHLEKLKAKDKEAAERFLKELEEAAKEYAKDEAKTMSEEEAKRRAKKYKEKVMLSELSEEEQKEIKEAEEKLVRTILKYVEEAAK

13800
593
490
446
12500
490

apparent Kd (screen) in this record for K15Q (designed binder) SMEEEVEKAAKEYEQKKKEAIEKHLEKLKAKDKEAAERFLKELEEAAKEYAKDEAKTMSEEEAKRRAKKYKEKVLLSELSEEEQKEIKEAEEKLVRTILKYVEEAAK : 956
